Test system: Jurkat cells
method: PARP cleavage in Jurkat cells (immunoblot)
Assay type: cell-based, human
condition-description: 50 μM compound or 1 μM staurosporin, 6 hr

compound	cleavage of PARP
O=C(NCc1ccc(Cl)c(Cl)c1)OC1CCc2ccccc21 (stereo not shown)	limited processing
O=C1Cc2ccccc2N1Cc1ccc(Cl)c(Cl)c1	limited processing
CN[C@@H]1C[C@H]2O[C@@](C)([C@@H]1OC)n1c3ccccc3c3c4c(c5c6ccccc6n2c5c31)C(=O)NC4 [Staurosporin, reference compound]	complete cleavage
O=C1C(=O)N(Cc2ccc(Cl)c(Cl)c2)c2ccccc21	complete cleavage

* * *

Tested on: human prostate epithelial cells (PREC)
method: Cell viability, PREC
Assay type: cell-based
condition-description: PREC, normal cell
Source text: Normal cell lines include peripheral blood lymphocytes (PBL) isolated from donated human blood, non-transformed mammary fibroblasts (MCF-10A), human mammary epithelial cells (HMEC), human umbilical vein endothelial cells (HUVEC), and human prostate epithelial cells (PREC). Transformed cell lines include cell lines from leukemia, breast, lung, ovarian, and epidermal cancers (Table 1).

compound	IC50
O=C1C(=O)N(Cc2ccc(Cl)c(Cl)c2)c2ccccc21 [Compound 2]	> 50 µM

* * *

Documented pIC50 across a set of compounds
System: CCRF-CEM
method: Cell viability, CCRF-CEM
Type: cell-based, human
condition-description: leukemia
pIC50: −log10 of the molar value.
reported-metric: pIC50

compound	reported
O=C1C(=O)N(Cc2ccc(Cl)c(Cl)c2)c2ccccc21	5.05
CN[C@@H]1C[C@H]2O[C@@](C)([C@@H]1OC)n1c3ccccc3c3c4c(c5c6ccccc6n2c5c31)C(=O)NC4 [Staurosporin, reference compound]	7.16

* * *

Test system: Jurkat cells
method: DNA fragmentation analysis in Jurkat cells
Assay type: cell-based, human
condition-description: 50 μM compound or 1 μM staurosporin, 8 hr
reported-metric: DNA fragmentation

compound	reported-metric	reported
CCOC(=O)NCc1ccc(Cl)c(Cl)c1 [Compound 1]	DNA fragmentation	less pronounced effect
O=C(NCc1ccc(Cl)c(Cl)c1)OC1CCc2ccccc21 (stereo not drawn) [Compound 4]	DNA fragmentation	less pronounced effect
